Test system: HepG2
ASSAY_DETAILS: Cytotoxicity against human HepG2 cells assessed as reduction in cell viability after 48 to 72 hrs
Type: functional, cell-based
EXPERIMENTAL_ENDPOINT: IC50

Consider the compound O=C1C=CC[C@H](/C=C/c2ccccc2)O1 and give its measured IC50.
625 to 2500 nM

---

Test system: Huh-7
ASSAY_DETAILS: Cytotoxicity against human HuH7 cells assessed as reduction in cell viability measured after 24 hrs by MTT assay
Assay type: functional, cell-based
TEST_SETTINGS: Huh-7, 24 h
So I've got a bunch of molecules here, and I need their pIC50 values.
For clarity, pIC50 is expressed as the negative log10 of concentration in mol/L.

# query: pIC50 | item O=C1C=CCC(c2cc3c(c4ccccc24)CCCC3)O1 (racemic) | system: Huh-7
5.30

Find the measured pIC50: item Cc1ccc([C@H]2CC=CC(=O)O2)c2ccccc12 , target or system Huh-7.
5.00
